# test system: T1, IL-23 receptor on the surface of HEK-Blue IL-23 cells (UniProt Q5VWK5 24-629, limits assumed)
# T1 sequence (looked up): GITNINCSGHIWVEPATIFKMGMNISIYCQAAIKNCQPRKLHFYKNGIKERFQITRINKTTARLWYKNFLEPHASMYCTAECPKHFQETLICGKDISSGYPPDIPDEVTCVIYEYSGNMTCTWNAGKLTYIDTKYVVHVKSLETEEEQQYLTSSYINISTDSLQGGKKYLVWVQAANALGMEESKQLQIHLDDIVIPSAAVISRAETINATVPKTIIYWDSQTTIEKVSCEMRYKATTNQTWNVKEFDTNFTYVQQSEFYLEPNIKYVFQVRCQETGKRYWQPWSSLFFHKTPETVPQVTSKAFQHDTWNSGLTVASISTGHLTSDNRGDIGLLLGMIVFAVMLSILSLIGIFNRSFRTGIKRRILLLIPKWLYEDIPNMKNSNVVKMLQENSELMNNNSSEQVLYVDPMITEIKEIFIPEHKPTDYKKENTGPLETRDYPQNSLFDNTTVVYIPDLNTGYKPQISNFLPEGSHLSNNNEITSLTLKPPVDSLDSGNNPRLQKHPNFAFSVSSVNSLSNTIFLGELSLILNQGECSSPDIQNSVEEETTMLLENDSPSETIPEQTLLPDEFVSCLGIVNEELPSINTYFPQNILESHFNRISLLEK
# protocol notes: cell-based or functional assay
Starred links: 1 amine or outer side, 2 acyl side, 3 side chain; linkers in the order of their positions; H or OH if unused. Positions of bridges follow the written chain, without caps; N, C: chain ends. Non-standard residues stand in square brackets, D forms with d. Yde = (2S)-2-amino-3-[4-[2-(dimethylamino)ethoxy]phenyl]propanoic acid, CN(C)CCOc1ccc(C[C@H](N[*:1])C(=O)[*:2])cc1; Trp(7-Me) = Cc1cccc2c(C[C@H](N)C(=O)O)c[nH]c12; 2Nal = N[C@@H](Cc1ccc2ccccc2c1)C(=O)O; εLys = N[C@@H](CCCCN[*:1])C(=O)[*:2]; Dad = desamino-aspartamic acid; αMeL = CC(C)C[C@](C)(N)C(=O)O; Aib = CC(C)(N)C(=O)O; Ava = NCCCCC(=O)O
observable: pSTAT3 (nM)

- [Ava]CNT[Trp(7-Me)]QC[Yde][2Nal][Aib]ENH-NH2 (lactam N-11; disulfide 2-7; SMILES Cc1cccc2c(C[C@@H]3NC(=O)[C@H]([C@@H](C)O)NC(=O)[C@H](CC(N)=O)NC(=O)[C@@H]4CSSC[C@H](NC(=O)[C@H](CCC(N)=O)NC3=O)C(=O)N[C@@H](Cc3ccc(OCCN(C)C)cc3)C(=O)N[C@@H](Cc3ccc5ccccc5c3)C(=O)NC(C)(C)C(=O)N[C@H](C(=O)N[C@@H](CC(N)=O)C(=O)N[C@@H](Cc3c[nH]cn3)C(N)=O)CCC(=O)NCCCCC(=O)N4)c[nH]c12) [Compound of SEQ ID NO: 52]: 1.25 nM
- [Ava]C[εLys](Ac)WQC[Yde][2Nal][Aib]ENG-NH2 (lactam N-10; disulfide 2-6; also: Cys2 carboxyl bonded to Lys3 epsilon-NH2 (isopeptide), Lys3 alpha-N acetylated) [Compound of SEQ ID NO: 29]: 8.16 nM
- [Dad]CNT[Trp(7-Me)]K(Ac)C[Yde][2Nal][αMeL]KNH-NH2 (lactam N-11; disulfide 2-7) [Compound of SEQ ID NO: 23]: 3.32 nM
